System: MDA-MB-231
assay.method.text: WST-1 IC50 determination, MDA-MB-231
Assay type: cell-based, human
measurement.parameters: triple negative breast cancer; read-out: Anticancer activities, TNBC 231
readout: pIC50
One number for each entry, as −log10 of the molar value.

GET /values?readout=pIC50&item= N.N.[Cl][Pt][Cl] [Cisplatin]
4.93

* * *

Test system: MDA-MB-231
assay.method.text: WST-1 IC50 determination, MDA-MB-231
Format: cell-based, human
measurement.parameters: 72 hours, WST-1; read-out: Anticancer activity IC50 ± SD, MDA-MB-231
readout: IC50 (µM)
One number for each entry, in µM.

Study these solved cases before continuing.
| compound | measured.on | IC50 (µM) |
| --- | --- | --- |
| C#Cc1ccc(NN=Nc2ccc(C(=N)N)cc2)cc1 [DMZ3] | MDA-MB-231 | 30.2 |
| N=C(N)c1ccc(N=NNc2ccccc2C#Cc2ccccc2)cc1 [DMZ12] | MDA-MB-231 | 5.1 |
| C#Cc1cccc(NN=Nc2ccc(C(=N)N)cc2)c1 [DMZ5] | MDA-MB-231 | 20.5 |

Give IC50 for each of the items listed below.
1. C[n+]1ccc(-c2c3nc(c(-c4cc[n+](C)cc4)c4ccc([nH]4)c(-c4cc[n+](C)cc4)c4ccc([nH]4)c(-c4cc[n+](C)cc4)c4nc2C=C4)C=C3)cc1 [TMPyP4, reference compound]
2. N=C(N)c1ccc(N=NNc2cccc(C#Cc3ccc(F)cc3)c2)cc1 [DMZ9]

1: 14.3; 2: 5.5

* * *

Test system: k-RAS21R
assay.method.text: FRET melting assay, k-RAS21R
Format: binding
measurement.parameters: dual-labeled DNA 0.2 μM, DMZ analogues 1 μM, potassium cacodylate 60 mM pH 7.2
readout: ΔTm k-RAS21R (°C)
One number for each entry, in °C.

| compound | ΔTm k-RAS21R (°C) |
| --- | --- |
| N=C(N)c1ccc(/N=N/Nc2ccccc2C#Cc2ccc(F)cc2)cc1 [DMZ13] | 2.01 |
| N#Cc1ccc(NN=Nc2ccc(C(=N)N)cc2)cc1 [DMZ2] | 7.49 |

GET /values?readout=ΔTm k-RAS21R&item= COc1ccc(C#Cc2cccc(NN=Nc3ccc(C(=N)N)cc3)c2)cc1 [DMZ10]
1.65

* * *

measured.on: 24mer c-myc
assay.method.text: ITC titration with c-myc G-quadruplex
measurement.parameters: from ITC data, as low as; read-out: dissociation constant
readout: Kd

GET /values?readout=Kd&item= N=C(N)c1ccc(/N=N/Nc2ccc(C(=N)N)cc2)cc1 [DMZ, Diminazene aceturate, reference compound]
~1 nM

* * *

For each entry below, report its half-life value.
assay.method.text: Human liver microsome stability
Type: in vitro ADME
measurement.parameters: human, liver microsomes, read-out: NADPH-dependent T½
A complete answer gives the number followed by the unit.

Give half-life for each of the items listed below.
1. N=C(N)c1ccc(/N=N/c2c(N)ncc3ccccc23)cc1 [HSW308-4]
2. N=C(N)c1ccc(/N=N/c2c(N)ncc3ccc(Br)cc23)cc1 [HSW630-1]
3. CCCCNC(=N)c1ccc(/N=N/c2c(N)ncc3ccc(Br)cc23)cc1 [HSY430-6]

1. 3.27 h
2. 3.18 h
3. 2.57 h

* * *

Tested on: MOLM14
assay.method.text: WST-1 IC50 determination, MOLM14
Assay type: cell-based
measurement.parameters: Homo sapiens, MOLM-14; leukemia; read-out: Anticancer activities, Molm14
readout: IC50 (nM)
Give bare numbers, in nM.

Provide the documented IC50 with MOLM14 as the system for N=C(N)c1ccc(/N=N/c2c(N)ncc3ccccc23)cc1
980
